measurement description: sensitizers of A549 cells to miR-34 induction, primary screen, imaging, A549 dox-inducible miR-34, nuclei and caspase counts (AID 1347080)
test context: A549 miR-34 inducible, Hoechst nuclei count, 48 h; measured here: total cells with miR-34 induction; stronger effect = lower value
Quick list: cell count per entry.
When you answer, write just the number.

Which value of cell count has been reported for O=S(=O)(CC1CS1)c1ccc(Oc2ccccc2)cc1 (stereo not given) in the records? 8270

Which value of cell count has been reported for c1ccc(CC(c2ccccc2)N2CCCCC2)cc1 (stereo not given) in the records? 9440

====

measurement description: growth inhibition of DIPG glioma cells, dose response, cell-based, SU-DIPG-XVII, MIPE5.0, CellTiter-Glo, qHTS (AID 1347060);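 for AC50: cells exposed to compound for 48 hours before viability readout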
test context: SU-DIPG-XVII viability, CellTiter-Glo ATP luminescence
Results filed as inconclusive are left out. Calls of active or inactive are those of the source. The limit is not given here; nearly all actives have AC50 up to about 26 µM.
Select the matching outcome among yes (1) for active, no (0) for inactive

| molecule | class assignment |
| --- | --- |
| CC(C)[C@H]1C(=O)N[C@H](CO)Cc2c[nH]c3cccc(c23)N1C | no (0) |
| COC[C@H]1OC(=O)c2coc3c2[C@@]1(C)C1=C(C3=O)C2CCC(=O)[C@@]2(C)C[C@H]1OC(C)=O (some centres undefined) | yes (1) |
| CC(=O)Nc1ccc(OC[C@](C)(O)C(=O)Nc2ccc([N+](=O)[O-])c(C(F)(F)F)c2)cc1 | no (0) |

Given O=C(N[C@H]1CN2CCC1CC2)c1ccc(Cl)cc1 , state the outcome it received in this test. no (0)

====

measurement description: liver-stage malaria parasite growth inhibition, primary screen, cell-based, HepG2, luciferase luminescence, HepG2 viability (AID 624349);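 note: 100% = mean of DMSO negative control wells on the same plate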
test context: P. berghei liver stage in HepG2, luciferase luminescence, concentration not given here; measured here: HepG2 viability without parasites
reported metric: viability

| compound | reported metric | value observed |
| --- | --- | --- |
| CCCCC(C#N)(Cn1cncn1)c1ccc(Cl)cc1 (configuration not stated) | viability | 67.5% |

Which value of viability has been reported for CCN1C[C@]2(COC)CC[C@H](O)[C@]34C1[C@H](C[C@H]23)[C@@]1(O)C[C@H](OC)[C@H]2C[C@@H]4[C@@H]1[C@H]2OC(C)=O in the records? 71.5%

Which value of viability has been reported for CCC1(C2=NCCN2)Cc2ccccc2O1 (configuration not stated) in the records? 95.5%

====

System: Aerobactin synthetase IucA (Klebsiella pneumoniae hvKP1)
measurement description: Biochemical IucA enzyme inhibition primary screen of the Spectrum library (AID 1346200);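 note: 100% = wells without compound and 0% = wells lacking enzyme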
test context: malachite green pyrophosphate, A620, at 8 µM, stronger effect = lower value
Activity calls are given as the source filed them. The rule behind the calls is not given here.
reported metric: activity remaining

Which value of activity remaining has been reported for Nc1ccc(N=Nc2ccccc2)c(N)n1 in the records? 112% (inactive)

Which value of activity remaining has been reported for O=c1[nH]oc2c1CCNC2 in the records? 105% (inactive)

Which value of activity remaining has been reported for COc1cc2c(cc1O)CCNC2C (stereo not drawn) in the records? 107% (inactive)

====

Quick list: normalised cell number per entry.
measurement description: differential killing of epithelial or mesenchymal cells, primary screen, imaging, PC-3E GFP, TEM4-18 mCherry, co-culture (AID 1345086);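 note: cells exposed to compound for 72 h before imaging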
test context: imaging cell counts, measured here: epithelial PC-3E GFP cell survival, at 1 µM
When you answer, write just the number.

Check out these entries, answers already filled in.
| molecule | reported metric | value observed |
| --- | --- | --- |
| NP(N)(=O)NC(=O)c1ccc(F)cc1 | normalised cell number | 0.92 |
| CN1C(=O)c2ccccc2NC(=O)[C@@H]1Cc1ccccc1 | normalised cell number | 1.1 |
| C[N+]12CC(C[C@H]1c1cccnc1)C2 | normalised cell number | 1.14 |
| CS(=N)(=O)CC[C@H](N)C(=O)O (stereo partly specified) | normalised cell number | 1.08 |
| COC(=O)[C@@H]1C[C@H](OC(C)=O)C(=O)[C@H]2[C@@]1(C)CC[C@H]1C(=O)O[C@H](c3ccoc3)C[C@]21C | normalised cell number | 0.84 |

Let us move to another entry and its normalised cell number.
Which value of normalised cell number has been reported for CN1C2CCC1CC(OC(c1ccccc1)c1ccccc1N)C2 (stereo unspecified) in the records? 1.34

Hey, just so you know, these numbers are from PubChem BioAssay.
